Target: HCK (human)
Experiment: radiometric filter-binding kinase assay, Kinase HotSpot
Conditions: compound 0.5 µM; ATP 10 µM
# maps each entry to its residual activity
Report the figure in % without appending any unit label.

Field: example entries. Status: answers known.
[[record]]
molecule = "O=C(CCCc1ccc(-c2ccccc2F)cc1)Nc1ccc(O)cc1"
studytarget = "HCK (human)"
result = 93.5

[[record]]
molecule = "O=C1Cc2c([nH]c3ccc(Br)cc23)-c2ccccc2N1"
studytarget = "HCK (human)"
result = 85.5

[[record]]
molecule = "COc1ccc(CNC(=O)Nc2ncc([N+](=O)[O-])s2)cc1"
studytarget = "HCK (human)"
result = 96.7

[[record]]
molecule = "O=C1NC(=O)C(c2cn(CCCO)c3ncccc23)=C1c1cnccn1"
studytarget = "HCK (human)"
result = 63.4

[[record]]
molecule = "Oc1ccc(Nc2nc(-c3ccc(Cl)cc3)cs2)cc1"
studytarget = "HCK (human)"
result = 96.1


Which value of residual activity has been reported for "Cn1nc2c3c(cccc31)C(=O)c1ccccc1-2" in the records?
94.6

Which value of residual activity has been reported for "Cn1sc(=O)n(Cc2ccccc2)c1=O" in the records?
103

Which value of residual activity has been reported for "Nc1nnc2[nH]c3ccccc3nc1-2" in the records?
98.6

Which value of residual activity has been reported for "O=C(Nc1cccc(Nc2cc(Nc3cccc(C(F)(F)F)c3)ncn2)c1)C1CC1" in the records?
99

====

Target: DSTYK (human)
Experiment: radiometric filter-binding kinase assay, Kinase HotSpot
Settings: compound 0.5 µM; ATP 10 µM
# maps each entry to its residual activity
Report the figure in % without appending any unit label.

Field: example entries. Status: answers known.
[[record]]
testsmiles = "CC(=O)O/N=C1\\C(=C2\\C(=O)Nc3cc(Br)ccc32)Nc2ccccc21"
studytarget = "DSTYK (human)"
result = 81.1

[[record]]
testsmiles = "O=C1Cc2c([nH]c3ccc(Br)cc23)-c2ccccc2N1"
studytarget = "DSTYK (human)"
result = 98.6

[[record]]
testsmiles = "CC(C)[C@H](CO)Nc1nc(Nc2cc(N)cc(Cl)c2)c2ncn(C(C)C)c2n1"
studytarget = "DSTYK (human)"
result = 93.1

[[record]]
testsmiles = "O=C1Nc2ccccc2/C1=C1\\Nc2ccccc2\\C1=N/O"
studytarget = "DSTYK (human)"
result = 108

[[record]]
testsmiles = "Nc1nnc2[nH]c3ccccc3nc1-2"
studytarget = "DSTYK (human)"
result = 96


From here, focus on the item given below.
Which value of residual activity has been reported for "Cc1nc2cc3nc(-c4cccs4)cnc3cc2n1C" in the records?
106

====

# maps each entry to its residual activity
Target: ULK2 (human) (UniProt Q8IYT8)
Sequence (Q8IYT8 whole entry, looked up): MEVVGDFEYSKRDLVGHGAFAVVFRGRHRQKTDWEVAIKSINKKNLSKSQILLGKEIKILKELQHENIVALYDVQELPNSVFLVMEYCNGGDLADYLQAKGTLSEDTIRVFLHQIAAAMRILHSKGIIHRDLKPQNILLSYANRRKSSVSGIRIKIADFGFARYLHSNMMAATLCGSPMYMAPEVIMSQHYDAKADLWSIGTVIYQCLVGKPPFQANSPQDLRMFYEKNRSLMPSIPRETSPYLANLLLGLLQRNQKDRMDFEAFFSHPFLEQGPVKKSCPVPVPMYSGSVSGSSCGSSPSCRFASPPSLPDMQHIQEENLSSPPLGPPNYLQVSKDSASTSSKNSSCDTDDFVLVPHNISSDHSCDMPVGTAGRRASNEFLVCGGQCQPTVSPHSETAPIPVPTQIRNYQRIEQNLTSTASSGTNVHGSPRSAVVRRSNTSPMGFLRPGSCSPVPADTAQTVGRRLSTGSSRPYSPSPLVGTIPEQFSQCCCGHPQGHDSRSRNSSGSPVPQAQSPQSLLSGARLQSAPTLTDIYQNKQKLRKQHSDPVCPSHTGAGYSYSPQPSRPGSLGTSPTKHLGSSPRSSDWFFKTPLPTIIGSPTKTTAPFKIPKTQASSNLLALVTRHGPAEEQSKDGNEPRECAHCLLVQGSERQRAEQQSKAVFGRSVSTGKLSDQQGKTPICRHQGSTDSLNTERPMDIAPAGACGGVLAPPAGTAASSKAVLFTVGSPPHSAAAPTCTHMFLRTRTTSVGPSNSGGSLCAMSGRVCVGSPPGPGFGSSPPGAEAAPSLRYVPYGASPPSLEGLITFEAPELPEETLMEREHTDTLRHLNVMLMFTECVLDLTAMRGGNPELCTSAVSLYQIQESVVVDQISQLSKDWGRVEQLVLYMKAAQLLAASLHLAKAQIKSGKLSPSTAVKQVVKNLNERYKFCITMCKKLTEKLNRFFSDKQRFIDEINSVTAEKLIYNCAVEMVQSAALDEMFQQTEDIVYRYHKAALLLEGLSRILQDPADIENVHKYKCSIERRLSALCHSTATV
Experiment: radiometric filter-binding kinase assay, Kinase HotSpot
Conditions: compound 0.5 µM; ATP 10 µM
Report the figure in % without appending any unit label.

[[record]]
compound = "CCn1cnc2c(Nc3cccc(Cl)c3)nc(N[C@@H]3CCCC[C@@H]3N)nc21"
result = 94.2


Which value of residual activity has been reported for "O=C(CCCc1ccc(-c2ccccc2F)cc1)Nc1ccc(O)cc1" in the records?
116

Which value of residual activity has been reported for "O=C1Cc2c([nH]c3ccc(Br)cc23)-c2ccccc2N1" in the records?
90.1

Which value of residual activity has been reported for "Nc1nnc2[nH]c3ccccc3nc1-2" in the records?
95.9

Which value of residual activity has been reported for "O=C1Nc2ccccc2/C1=C1\Nc2ccccc2\C1=N/O" in the records?
103

Which value of residual activity has been reported for "Oc1ccc(Nc2nc(-c3ccc(Cl)cc3)cs2)cc1" in the records?
101

Data origin: the kinase profiling compilation of Christmann-Franck et al. (2016)
